tested on: SKBR3 cells; assay: Cell proliferation (Cell Titer Glow), SKBR3; format: cell-based; settings: Homo sapiens, SK-BR-3; IG compounds, cell killing, 72 h
Answer each item with its documented pIC50.
pIC50 is defined as minus the log10 of a concentration measured in mol/L.

input: Look up pIC50 for this molecule: Cc1ccc(C(=O)C(=O)NCc2ccc3c(c2O)CN(C2CCC(=O)NC2=O)C3=O)cc1Cl (stereo not drawn)
output: 8.38

input: Look up pIC50 for this molecule: O=C1CCC(N2Cc3c(ccc(CNC(=O)Nc4ccc(Br)c(Cl)c4)c3O)C2=O)C(=O)N1 (stereo not drawn)
output: 7.67

input: Look up pIC50 for this molecule: O=C1CCC(N2Cc3c(ccc(CNC(=O)Nc4cccc(C5(C(F)(F)F)CC5)c4)c3O)C2=O)C(=O)N1 (stereo not drawn)
output: 8.56

###

Answer each item with its documented Dmax.
tested on: CAL51 cells; experiment: Degradation assay evaluated by immunofluorescence staining, CAL51; assay type: cell-based, human; settings: Homo sapiens, CAL-51, CAL51, 6 h
Hi! Could you send only the number? It should be in %, unit omitted.

input: Look up Dmax for this molecule: Cc1ccc(NC(=O)NCc2ccc3c(c2)CN(C2CCC(=O)NC2=O)C3=O)cc1O (stereo not drawn)
output: 96.8

input: Look up Dmax for this molecule: CNCCOCCc1ccc(NC(=O)NCc2ccc3c(c2)CN(C2CCC(=O)NC2=O)C3=O)cc1SC (stereo not drawn)
output: 73.3

input: Look up Dmax for this molecule: Cc1ccc(NC(=O)NCc2ccc3c(c2)C(=O)N(C2CCC(=O)NC2=O)C3)cc1Cl (stereo not drawn)
output: 91.7
